# maps each entry to its % inhibition of ligand receptor interaction
assayed-target: T1, human TNFSF9 (R&D Systems; #2295-4L-025/CF) (human, UniProt P41273 71-254, limits assumed)
T1 construct: also called TNFSF9 (ligand); TNFSF9 ligand
T1 sequence (P41273 71-254 limits assumed): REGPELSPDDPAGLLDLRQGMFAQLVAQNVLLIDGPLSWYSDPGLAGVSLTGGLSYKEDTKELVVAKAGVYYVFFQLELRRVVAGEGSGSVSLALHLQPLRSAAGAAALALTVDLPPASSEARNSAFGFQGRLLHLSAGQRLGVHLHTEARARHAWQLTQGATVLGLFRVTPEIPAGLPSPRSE
experimental-protocol: MSD ELISA: TNFSF9 + 1 ug/mL antibody, binding to coated TNFRSF9
The reply should be a number in %, with the unit left off.

These solved cases illustrate the format of a correct answer.
SC113.133 (antibody, V domains shown) VH: QVQLQQSGAELVRPGSSVKISCKASGYAFSSSWINWVKQRPGQGLEWIGQIYPGDGDTNYNGKFKGKATLTADKSSNTAYLQLNSLTSEDSAVYFCARTPIFAYWGQGTLVTVSA VL: DIQMTQSPSSLSASLGERVSLTCRASQEISGYLTWLQQKPDGTIKRLIYAASILDSGVPKRFSGSRSGSDYSLTISSLESEDFADYYCLQYASYPWTFGGGTKLEIK
66
SC113.35 (antibody, mouse IgG2b, V domains shown, mouse IgG2b) VH: DVQLQESGPDLVKPSQSLSLTCTVTGYSITSGYGWHWIRQFPGNKLEWMGYIDYSGNNNYNPSLKSRISITRDTSKNQLFLQLNSVTAEDTATYFCARIYYDAMDYWGQGTSVTVSS VL: DIVMTQSHKFMSTSVGERVSITCKASQDVGGAVAWYQQKPGQSPKLLIYWASTRHTGVPDRFTGSGSGTDFTLTISNVQSEDLADYFCQQYSSYPLTFGAGTKLDLK
73

Prompt: Form field: reported % inhibition of ligand receptor interaction of SC113.121 (antibody, V domains shown) VH: EVQLQQSGAELVKPGASVNLSCTASGFNIKDYYMHWMKQRPEQGLEWIGRIDPENGETRYAPKFQDKATITADTSSNTAYLQLRSLTSEDTAIYYCGRLDFYFDFWGQGTTLTVSS VL: QIVLSQSPAILSASPGEKVTMTCRASSSVSYMHWYQQKPGSSPKPWIYATSNLASGVPARFSGSGSGTSYSLTISRVEAEDAATYYCQQWSSNPPTFGSGTKLEIK
Response: 98
